Provenance of the data: ChEMBL document CHEMBL1201862

Assay: cytotoxicity toward NIH3T3 fibroblasts, dose response, counter-screen, cell-based, ATP luminescence, mouse fibroblasts (AID 2010);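 note: cells exposed to compound for about 90 hours before reading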
Assay type: functional
Activity calls are given as the source filed them. Cut-off read from the data, not from the text of the source: actives have a measured EC50 and inactives only a lower limit.
measurement-kind: EC50

compound: O=C(Cn1ccnc1)c1ccc(Cl)cc1
EC50: > 30 µM (not active)

compound: CCOC(=O)C(C(=O)OCC)c1cc(Br)c2noc3c2c1C(=O)c1ccccc1-3
EC50: 3.06 µM (active)

compound: OCCC1CN(Cc2cccc(C(F)(F)F)c2)CCN1Cc1ccccc1 (stereo not drawn)
EC50: > 60 µM (inconclusive)

List reported EC50 for each of these compounds:
1. Oc1c(Br)cc(Br)cc1/C=N/Nc1ccc(Cl)nn1
2. Clc1ccc(OCCOCCN2CCCCC2)c(Br)c1
3. CCN1CCN(c2ccc(S(=O)(=O)N3CCOCC3)cc2NC(=O)CCC(C)C)CC1

["> 30 µM (not active)", "13.2 µM (active)", "> 60 µM (not active)"]

List reported EC50 for each of these compounds:
1. CCOC(=O)c1sc(NC(=O)Nc2ccccc2Cl)cc1C
2. COc1ccc(NS(=O)(=O)c2ccc3ccccc3c2)c2ncccc12

["> 30 µM (not active)", "5.55 µM (active)"]
